# TARGET ENTITY: ARH3 (Mus musculus)
# Sequence (Q8CG72 whole entry): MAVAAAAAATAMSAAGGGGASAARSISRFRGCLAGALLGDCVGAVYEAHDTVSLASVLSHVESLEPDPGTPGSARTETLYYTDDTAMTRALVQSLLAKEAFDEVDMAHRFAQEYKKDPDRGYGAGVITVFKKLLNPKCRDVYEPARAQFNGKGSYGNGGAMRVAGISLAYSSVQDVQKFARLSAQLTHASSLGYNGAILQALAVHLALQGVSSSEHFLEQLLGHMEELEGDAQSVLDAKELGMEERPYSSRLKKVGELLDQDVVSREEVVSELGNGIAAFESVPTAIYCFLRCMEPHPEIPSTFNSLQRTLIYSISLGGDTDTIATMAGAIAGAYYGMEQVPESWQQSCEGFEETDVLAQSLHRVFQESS
READOUT KIND: Ki (µM)
Write it as a number; the unit µM goes unstated.

Qu. Please tell me: Ki of Nc1ncnc2c1ncn2[C@@H]1O[C@H](COP(=O)(O)OP(=O)(O)OC[C@H]2OC(O)[C@H](O)[C@@H]2O)[C@@H](O)[C@H]1O (stereo partly shown) , system ARH3 (Mus musculus)?
Ans. 8.6
